# Test system: 134 cancer cell lines
# PROTOCOL DESCRIPTION: Cell viability assay (ATPlite, 72 hours), IC50 on cancer cell line panel
# EXPERIMENTAL PARAMETERS: Homo sapiens, AN3-CA, read-out: IC50 in cell proliferation assay, cell line AN3-CA (FGFR2 p.N549K)
ATTRIBUTE MEASURED: pIC50
Lab note — pIC50 values are minus log10 of concentrations in M.

C[C@H](Nc1ncnc2nc[nH]c12)c1cc2cccc(Cl)c2c(=O)n1-c1ccccc1 [duvelisib]; 5.38
CO[C@]1(C(=O)N[C@@H](C)c2ccc(-n3cc(F)cn3)nc2)CC[C@H](c2nc(C)cc(Nc3cc(C)[nH]n3)n2)CC1 [pralsetinib]; 6.05
Cc1nc(NC(=O)N2CCC[C@H]2C(N)=O)sc1-c1ccnc(C(C)(C)C(F)(F)F)c1 [alpelisib]; 6.16
CN1CCN(c2ccc(C(=O)Nc3n[nH]c4ccc(Cc5cc(F)cc(F)c5)cc34)c(NC3CCOCC3)c2)CC1 [entrectinib]; 5.42

Next item in the queue.
[Q] Item under review: CCc1nc(C(N)=O)c(Nc2ccc(N3CCC(N4CCN(C)CC4)CC3)c(OC)c2)nc1NC1CCOCC1 [gilteritinib] . Reported pIC50?
[A] 5.91

----------
# ASSAY SYSTEM: panel of 255 wild-type kinases (Homo sapiens, UniProt Q9BZL6)
# Sequence (Q9BZL6 whole entry): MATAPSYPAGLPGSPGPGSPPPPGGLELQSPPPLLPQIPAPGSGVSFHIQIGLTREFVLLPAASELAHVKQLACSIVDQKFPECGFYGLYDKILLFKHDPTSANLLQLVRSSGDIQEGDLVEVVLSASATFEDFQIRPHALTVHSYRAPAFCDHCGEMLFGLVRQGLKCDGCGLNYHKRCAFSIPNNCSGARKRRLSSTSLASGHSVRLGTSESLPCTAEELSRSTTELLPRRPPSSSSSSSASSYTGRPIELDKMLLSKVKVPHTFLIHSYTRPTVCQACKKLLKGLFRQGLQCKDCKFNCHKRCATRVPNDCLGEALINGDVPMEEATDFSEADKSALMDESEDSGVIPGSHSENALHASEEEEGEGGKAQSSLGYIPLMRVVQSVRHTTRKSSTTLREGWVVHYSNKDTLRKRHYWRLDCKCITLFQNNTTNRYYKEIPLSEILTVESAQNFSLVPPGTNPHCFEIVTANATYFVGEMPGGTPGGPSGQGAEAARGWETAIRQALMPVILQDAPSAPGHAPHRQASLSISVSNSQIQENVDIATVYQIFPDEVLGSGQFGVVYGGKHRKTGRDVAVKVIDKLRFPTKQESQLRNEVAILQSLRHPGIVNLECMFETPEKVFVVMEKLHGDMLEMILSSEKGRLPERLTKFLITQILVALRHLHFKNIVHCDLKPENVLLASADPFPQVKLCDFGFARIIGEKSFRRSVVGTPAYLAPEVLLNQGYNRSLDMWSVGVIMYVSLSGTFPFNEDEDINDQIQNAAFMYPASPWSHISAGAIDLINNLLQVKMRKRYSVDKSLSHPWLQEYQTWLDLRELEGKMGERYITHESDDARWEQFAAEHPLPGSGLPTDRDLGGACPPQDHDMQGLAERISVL
# PROTOCOL DESCRIPTION: Kinase panel profiling at 1 µmol/L (MSA or IMAP), percentage inhibition
# Format: biochemical
# EXPERIMENTAL PARAMETERS: kinase PKD2; 1 µmol/L single concentration; read-out: %-inhibition at 1 µmol/L, PKD2
ATTRIBUTE MEASURED: inhibition at 1 µM (%)
Use % as the unit, but write only the number.

C=CC(=O)N1CCC([C@@H]2CCNc3c(C(N)=O)c(-c4ccc(Oc5ccccc5)cc4)nn32)CC1; 2.31
CCN1CCN(c2ccc(Nc3cc(N(C)C(=O)Nc4c(Cl)c(OC)cc(OC)c4Cl)ncn3)cc2)CC1; -4.21
Cn1cnc2c(F)c(Nc3ccc(Br)cc3Cl)c(C(=O)NOCCO)cc21; -15
Cc1cc(Nc2ncnc3ccc(NC4=NC(C)(C)CO4)cc23)ccc1Oc1ccn2ncnc2c1; 44
CN1CCN(c2ccc(C(=O)Nc3n[nH]c4ccc(Cc5cc(F)cc(F)c5)cc34)c(NC3CCOCC3)c2)CC1; -24

[Q] Item under review: `O=C(Nc1cnn2ccc(N3CCC[C@@H]3c3cc(F)ccc3F)nc12)N1CC[C@H](O)C1` . Reported inhibition at 1 µM?
[A] -6

[Q] Request: `Cc1nc(NC(=O)N2CCC[C@H]2C(N)=O)sc1-c1ccnc(C(C)(C)C(F)(F)F)c1`
[A] -20

[Q] Request: `COc1ccc(CN2C3CC2CN(c2ccc(-c4cc(OCC(C)(C)O)cn5ncc(C#N)c45)cn2)C3)cn1`
[A] 1.11

----------
# Test system: 134 cancer cell lines
# PROTOCOL DESCRIPTION: Cell viability assay (ATPlite, 72 hours), IC50 on cancer cell line panel
# EXPERIMENTAL PARAMETERS: read-out: IC50 in cell proliferation assay, cell line RD
ATTRIBUTE MEASURED: IC50 (µM)
Use µM as the unit, but write only the number.

CO[C@]1(C(=O)N[C@@H](C)c2ccc(-n3cc(F)cn3)nc2)CC[C@H](c2nc(C)cc(Nc3cc(C)[nH]n3)n2)CC1 [pralsetinib]; 14.6
COc1cc2ncnc(Nc3ccc(F)c(Cl)c3)c2cc1NC(=O)/C=C/CN1CCCCC1 [dacomitinib]; 2.53
COc1ccc(CN2C3CC2CN(c2ccc(-c4cc(OCC(C)(C)O)cn5ncc(C#N)c45)cn2)C3)cn1 [selpercatinib]; 6.94
Cc1nc(NC(=O)N2CCC[C@H]2C(N)=O)sc1-c1ccnc(C(C)(C)C(F)(F)F)c1 [alpelisib]; 1.15

[Q] Item under review: Cn1cnc2c(F)c(Nc3ccc(Br)cc3Cl)c(C(=O)NOCCO)cc21 [selumetinib] . Reported IC50?
[A] 0.059

----------
molecules and their reported inhibition at 1 µM
# ASSAY SYSTEM: panel of 255 wild-type kinases (Homo sapiens)
# PROTOCOL DESCRIPTION: Kinase panel profiling at 1 µmol/L (MSA or IMAP), percentage inhibition
# Format: biochemical
# EXPERIMENTAL PARAMETERS: p38δ; 1 µmol/L single concentration; read-out: %-inhibition, p38δ
Use % as the unit, but write only the number.

Cn1cnc2c(F)c(Nc3ccc(Br)cc3F)c(C(=O)NOCCO)cc21; 3.49
C[C@H](Nc1ncnc2nc[nH]c12)c1cc2cccc(Cl)c2c(=O)n1-c1ccccc1; -3
Cc1nc(NC(=O)N2CCC[C@H]2C(N)=O)sc1-c1ccnc(C(C)(C)C(F)(F)F)c1; -4.21

Next item in the queue.
[Q] Item under review: `CCN1CCN(c2ccc(Nc3cc(N(C)C(=O)Nc4c(Cl)c(OC)cc(OC)c4Cl)ncn3)cc2)CC1` . Reported inhibition at 1 µM?
[A] -4

----------
compounds and their reported inhibition at 1 µM
# ASSAY SYSTEM: panel of 255 wild-type kinases (Homo sapiens)
# PROTOCOL DESCRIPTION: Kinase panel profiling at 1 µmol/L (MSA or IMAP), percentage inhibition
# Assay type: biochemical
# EXPERIMENTAL PARAMETERS: kinase Haspin; 1 µmol/L single concentration; read-out: %-inhibition at 1 µmol/L, Haspin
Use % as the unit, but write only the number.

Below are worked cases with known answers.
Cc1nc(NC(=O)N2CCC[C@H]2C(N)=O)sc1-c1ccnc(C(C)(C)C(F)(F)F)c1 [alpelisib]; -4
CCc1nc(C(N)=O)c(Nc2ccc(N3CCC(N4CCN(C)CC4)CC3)c(OC)c2)nc1NC1CCOCC1 [gilteritinib]; 35
COc1ccc(CN2C3CC2CN(c2ccc(-c4cc(OCC(C)(C)O)cn5ncc(C#N)c45)cn2)C3)cn1 [selpercatinib]; -4.63
CO[C@]1(C(=O)N[C@@H](C)c2ccc(-n3cc(F)cn3)nc2)CC[C@H](c2nc(C)cc(Nc3cc(C)[nH]n3)n2)CC1 [pralsetinib]; 0.149
Cn1cnc2c(F)c(Nc3ccc(Br)cc3F)c(C(=O)NOCCO)cc21 [binimetinib]; -15
COC(=O)N[C@@H](C)CNc1nccc(-c2cn(C(C)C)nc2-c2cc(Cl)cc(NS(C)(=O)=O)c2F)n1 [encorafenib]; -5

Next item in the queue.
[Q] Under panel of 255 wild-type kinases (Homo sapiens): inhibition at 1 µM value of CCN1C(=O)N(c2c(F)c(OC)cc(OC)c2F)Cc2cnc3[nH]c(CN4CCOCC4)cc3c21 [pemigatinib] ?
[A] -3.7

----------
# ASSAY SYSTEM: panel of 255 wild-type kinases (Homo sapiens)
# PROTOCOL DESCRIPTION: Kinase panel profiling at 1 µmol/L (MSA or IMAP), percentage inhibition
# Type: biochemical
# EXPERIMENTAL PARAMETERS: CDC2/CycB1 kinase assay; 1 µmol/L single concentration; read-out: %-inhibition CDC2/CycB1
ATTRIBUTE MEASURED: inhibition at 1 µM
Your answer should be a number followed by the unit of measure.

CCN1C(=O)N(c2c(F)c(OC)cc(OC)c2F)Cc2cnc3[nH]c(CN4CCOCC4)cc3c21; 10%

[Q] Item under review: `COc1ccc(CN2C3CC2CN(c2ccc(-c4cc(OCC(C)(C)O)cn5ncc(C#N)c45)cn2)C3)cn1` . Reported inhibition at 1 µM?
[A] -4%

[Q] Request: `Cn1cc(-c2cc3c(N4CCN(c5ncc([C@@](C)(N)c6ccc(F)cc6)cn5)CC4)ncnn3c2)cn1`
[A] 3%

----------
# Tested on: 134 cancer cell lines
# PROTOCOL DESCRIPTION: Cell viability assay (ATPlite, 72 hours), IC50 on cancer cell line panel
# EXPERIMENTAL PARAMETERS: Homo sapiens, BT-549, read-out: IC50 in cell proliferation assay
ATTRIBUTE MEASURED: pIC50
Lab note — pIC50 values are minus log10 of concentrations in M.

[Q] Item under review: `Cn1cc(-c2cc3c(N4CCN(c5ncc([C@@](C)(N)c6ccc(F)cc6)cn5)CC4)ncnn3c2)cn1` . Reported pIC50?
[A] 5.29

----------
# ASSAY SYSTEM: panel of 255 wild-type kinases (Homo sapiens)
# PROTOCOL DESCRIPTION: Kinase panel profiling at 1 µmol/L (MSA or IMAP), percentage inhibition
# Assay type: biochemical
# EXPERIMENTAL PARAMETERS: NDR1; 1 µmol/L single concentration; read-out: %-inhibition, NDR1
compounds and their reported inhibition at 1 µM
Use % as the unit, but write only the number.

Cn1cnc2c(F)c(Nc3ccc(Br)cc3Cl)c(C(=O)NOCCO)cc21; 0.227

[Q] Under panel of 255 wild-type kinases (Homo sapiens): inhibition at 1 µM value of `CO[C@]1(C(=O)N[C@@H](C)c2ccc(-n3cc(F)cn3)nc2)CC[C@H](c2nc(C)cc(Nc3cc(C)[nH]n3)n2)CC1` ?
[A] 7.54

[Q] Request: `Cn1cc(-c2cc3c(N4CCN(c5ncc([C@@](C)(N)c6ccc(F)cc6)cn5)CC4)ncnn3c2)cn1`
[A] -1.28

[Q] Request: `COc1ccc(CN2C3CC2CN(c2ccc(-c4cc(OCC(C)(C)O)cn5ncc(C#N)c45)cn2)C3)cn1`
[A] -1.18

[Q] Request: `CCn1c(=O)c(-c2cc(NC(=O)Nc3ccccc3)c(F)cc2Br)cc2cnc(NC)cc21`
[A] 0.881

[Q] Request: `FC(F)(F)c1ccc(CNc2ccc(Cc3c[nH]c4ncc(Cl)cc34)cn2)cn1`
[A] 13

[Q] Request: `C[C@H](Nc1ncnc2nc[nH]c12)c1cc2cccc(Cl)c2c(=O)n1-c1ccccc1`
[A] 0.434
